Assay: in vivo
Conditions: dog, po
As shown below, each of these compounds has a reported MTD value.

{"compound": "CNc1cccc(C2CN3CCSC3=N2)c1.Cl.Cl (centres unmarked)", "unit symbol": "mg/kg", "sign qualifier": ">", "MTD": 10}
{"compound": "O=CNc1cccc(C2CN3CCSC3=N2)c1 (racemic) [m-NH--HCO dl]", "unit symbol": "mg/kg", "sign qualifier": "=", "MTD": 7.5}
{"compound": "Cl.Cl.Nc1cccc(C2CN3CCSC3=N2)c1 (racemic)", "unit symbol": "mg/kg", "sign qualifier": "=", "MTD": 7.5}
{"compound": "Nc1cccc(C2CN3CCSC3=N2)c1 (centres unmarked)", "unit symbol": "mg/kg", "sign qualifier": "=", "MTD": 10}
{"compound": "O=CNc1cccc(C2CN3CCSC3=N2)c1 (stereo not drawn) [HNCHO l-]", "unit symbol": "mg/kg", "sign qualifier": "=", "MTD": 2.5}
